# Study system: BRD4-BD1 (Homo sapiens, UniProt O60885)
# Protocol summary: bromoKdELECT assay for binding affinity to BRD4-BD1
# Reported conditions: Table 6
pKd: −log10 of the molar value.

{"columns": ["Compound", "pKd"],
 "data": [
  ["Cc1sc2c(c1C)C(c1ccc(Cl)cc1)=N[C@@H](CC(=O)NCCOC1CCN(c3ncc(C(=O)N[C@H]4C(C)(C)[C@H](Oc5ccc(C#N)c(Cl)c5)C4(C)C)cn3)CC1)c1nnc(C)n1-2 [Compound I-6]", "< 5.60"],
  ["CCN(C)C(=O)C[C@@H]1N=C(c2ccc(CCCOC3CCN(c4ncc(C(=O)N[C@H]5C(C)(C)[C@H](Oc6ccc(C#N)c(Cl)c6)C5(C)C)cn4)CC3)cc2)c2c(sc(C)c2C)-n2c(C)nnc21 [Compound I-101]", "< 5.60"],
  ["Cc1sc2c(c1C)C(c1ccc(Cl)cc1)=N[C@@H](CC(=O)NCCOCCOCCOC1CCCN(c3ncc(C(=O)N[C@H]4C(C)(C)[C@H](Oc5ccc(C#N)c(Cl)c5)C4(C)C)cn3)C1)c1nnc(C)n1-2 (stereo partly drawn) [Compound I-15]", "5.60 to 6.30"],
  ["Cc1sc2c(c1C)C(c1ccc(Cl)cc1)=N[C@@H](CC(=O)NCCCN1CCN(CCCOC3CCN(c4ncc(C(=O)N[C@H]5C(C)(C)[C@H](Oc6ccc(C#N)c(Cl)c6)C5(C)C)cn4)CC3)CC1)c1nnc(C)n1-2 [Compound I-10]", "6.30 to 7.30"],
  ["Cc1sc2c(c1C)C(c1ccc(Cl)cc1)=N[C@H](CC(=O)NCCOCCOCCOCCOC1CCN(c3ncc(C(=O)N[C@H]4C(C)(C)[C@H](Oc5ccc(C#N)c(Cl)c5)C4(C)C)cn3)CC1)c1nnc(C)n1-2 [Compound I-13]", "< 5.60"],
  ["CCNC(=O)C[C@@H]1N=C(c2ccc(N(C)C3CN(CC4CCN(c5ncc(C(=O)N[C@H]6C(C)(C)[C@H](Oc7ccc(C#N)c(Cl)c7)C6(C)C)cn5)CC4)C3)cc2)c2c(sc(C)c2C)-n2c(C)nnc21 [Compound I-119]", "6.30 to 7.30"],
  ["CCNC(=O)C[C@@H]1N=C(c2ccc(N(C)CCN3CCN(c4ncc(C(=O)N[C@H]5C(C)(C)[C@H](Oc6ccc(C#N)c(Cl)c6)C5(C)C)cn4)CC3)cc2)c2c(sc(C)c2C)-n2c(C)nnc21 [Compound I-108]", "6.30 to 7.30"],
  ["CCNC(=O)C[C@@H]1N=C(c2ccc(OCCOC3CCN(c4ncc(C(=O)N[C@H]5C(C)(C)[C@H](Oc6ccc(C#N)c(Cl)c6)C5(C)C)cn4)CC3)cc2F)c2c(sc(C)c2C)-n2c(C)nnc21 [Compound I-75]", "5.60 to 6.30"],
  ["CCNC(=O)C[C@@H]1N=C(c2ccc(OCCOC3CCN(c4ncc(C(=O)N[C@H]5C(C)(C)[C@H](Oc6ccc(C#N)c(Cl)c6)C5(C)C)cn4)CC3)c(F)c2)c2c(sc(C)c2C)-n2c(C)nnc21 [Compound I-76]", "5.60 to 6.30"],
  ["Cc1sc2c(c1C)C(c1ccc(CCCOC3CCN(c4ncc(C(=O)N[C@H]5C(C)(C)[C@H](Oc6ccc(C#N)c(Cl)c6)C5(C)C)cn4)CC3)cc1)=N[C@@H](Cc1ncco1)c1nnc(C)n1-2 [Compound I-131]", "< 5.60"],
  ["CCNC(=O)C[C@@H]1N=C(c2ccc(N3CCC(OC4CCN(c5ncc(C(=O)N[C@H]6C(C)(C)[C@H](Oc7ccc(C#N)c(Cl)c7)C6(C)C)cn5)CC4)CC3)cc2)c2c(sc(C)c2C)-n2c(C)nnc21 [Compound I-114]", "6.30 to 7.30"],
  ["Cc1sc2c(c1C)C(c1ccc(Cl)cc1)=N[C@@H](CC(=O)NCCOCCOCCOCC1CCN(c3ncc(C(=O)N[C@H]4C(C)(C)[C@H](Oc5ccc(C#N)c(Cl)c5)C4(C)C)cn3)CC1)c1nnc(C)n1-2 [Compound I-17]", "6.30 to 7.30"],
  ["CCNC(=O)C[C@@H]1N=C(c2ccc(OCCOC3CCN(c4ncc(C(=O)N[C@H]5C(C)(C)[C@H](Oc6ccc(C#N)c(Cl)c6)C5(C)C)cn4)CC3)c(F)c2F)c2c(sc(C)c2C)-n2c(C)nnc21 [Compound I-73]", "5.60 to 6.30"],
  ["Cc1sc2c(c1C)C(c1ccc(CCCOC3CCN(c4ncc(C(=O)N[C@H]5C(C)(C)[C@H](Oc6ccc(C#N)c(Cl)c6)C5(C)C)cn4)CC3)cc1)=N[C@@H](C)c1nnc(C)n1-2 [Compound I-228]", "5.60 to 6.30"],
  ["CCNC(=O)C[C@@H]1N=C(c2ccc(N3CCN(CC4CCN(c5ncc(C(=O)N[C@H]6C(C)(C)[C@H](Oc7ccc(C#N)c(Cl)c7)C6(C)C)cn5)CC4)CC3)cc2)c2c(sc(C)c2C)-n2c(C)nnc21 [Compound I-105]", "6.30 to 7.30"],
  ["CCN(C)C(=O)C[C@@H]1N=C(c2ccc(OCCOC3CCN(c4ncc(C(=O)N[C@H]5C(C)(C)[C@H](Oc6ccc(C#N)c(Cl)c6)C5(C)C)cn4)CC3)cc2)c2c(sc(C)c2C)-n2c(C)nnc21 [Compound I-66]", "5.60 to 6.30"],
  ["CCNC(=O)C[C@@H]1N=C(c2ccc(N(C)CC3CN(c4ncc(C(=O)N[C@H]5C(C)(C)[C@H](Oc6ccc(C#N)c(Cl)c6)C5(C)C)cn4)C3)cc2)c2c(sc(C)c2C)-n2c(C)nnc21 [Compound I-107]", "6.30 to 7.30"],
  ["Cc1sc2c(c1C)C(c1ccc(Cl)cc1)=N[C@H](CC(=O)NCCOCCOCCOCCOCCOCCOCCOC1CCN(c3ncc(C(=O)N[C@H]4C(C)(C)[C@H](Oc5ccc(C#N)c(Cl)c5)C4(C)C)cn3)CC1)c1nnc(C)n1-2 [Compound I-9]", "5.60 to 6.30"]
]}

* * *

# Test system: T-Rex 293 cell line SC3 cells having increased expression of androgen receptor protein due to exposure to doxycycline
# Protocol summary: Cellular growth inhibition, T-Rex 293 SC3 cells with doxycycline (androgen receptor induced), CellTiter-Glo
# Assay type: cell-based
# Reported conditions: T-Rex 293 SC3 cells with 10 ng/mL doxycycline (increased androgen receptor expression), 72 hours

{"columns": ["Compound", "GI50"],
 "data": [
  ["Cc1sc2c(c1C)C(c1ccc([C@H]3C[C@H](C[C@@H]4CCCN(c5ncc(C(=O)N[C@H]6C(C)(C)[C@H](Oc7ccc(C#N)c(Cl)c7)C6(C)C)cn5)C4)C3)cc1)=N[C@@H](Cc1ncco1)c1nnc(C)n1-2", "< 500 nM"],
  ["Cc1sc2c(c1C)C(c1ccc(N3CCC[C@H](C(=O)NCc4ncc(C(=O)N[C@H]5C(C)(C)[C@H](Oc6ccc(C#N)c(Cl)c6)C5(C)C)cn4)C3)cc1)=N[C@@H](Cc1ncco1)c1nnc(C)n1-2 [Compound I-331]", "< 500 nM"],
  ["Cc1sc2c(c1C)C(c1ccc(C3CC(C4CCN(c5cnc(C(=O)N[C@H]6C(C)(C)[C@H](Oc7ccc(C#N)c(Cl)c7)C6(C)C)cn5)CC4)C3)cc1)=NC(C)c1nnc(C)n1-2 (stereo partly drawn) [Compound I-472]", "> 3000 nM"]
]}

* * *

# System: T47D cells
# Protocol summary: Cellular growth inhibition assay for T47D cells, CellTiter-Glo
# Assay type: cell-based, human
# Reported conditions: 72 hours treatment, CellTiter-Glo 2.0 cell viability
# Lookup of reported GI50 keyed by entry
Reported property: GI50

{"columns": ["Molecule", "Reported property", "Result"],
 "data": [
  ["Cc1sc2c(c1C)C(c1ccc(C3CC(C4CCN(c5ncc(C(=O)N[C@H]6C(C)(C)[C@H](Oc7ccc(C#N)c(Cl)c7)C6(C)C)cn5)CC4)C3)cc1)=NC(C)c1nnc(C)n1-2 (stereo partly drawn) [Compound I-466]", "GI50", "< 500 nM"],
  ["Cc1sc2c(c1C)C(c1ccc(C3CC(CC4CN(c5ncc(C(=O)N[C@H]6C(C)(C)[C@H](Oc7ccc(C#N)c(Cl)c7)C6(C)C)cn5)C4)C3)cc1)=NC(Cc1ncco1)c1nnc(C)n1-2 (stereo partly drawn)", "GI50", "< 500 nM"],
  ["Cc1sc2c(c1C)C(c1ccc(N3CC(C4CCCN(c5ncc(C(=O)N[C@H]6C(C)(C)[C@H](Oc7ccc(C#N)c(Cl)c7)C6(C)C)cn5)C4)C3)cc1)=N[C@@H](C)c1nnc(C)n1-2 (stereo partly drawn) [Compound I-473]", "GI50", "> 3000 nM"],
  ["Cc1sc2c(c1C)C(c1ccc(C(=O)N3CCC(C(=O)c4ncc(C(=O)N[C@H]5C(C)(C)[C@H](Oc6ccc(C#N)c(Cl)c6)C5(C)C)cn4)CC3)cc1)=N[C@@H](Cc1ncco1)c1nnc(C)n1-2", "GI50", "> 3000 nM"],
  ["Cc1sc2c(c1C)C(c1ccc(OCC3CC4(CCCN(c5ncc(C(=O)N[C@H]6C(C)(C)[C@H](Oc7ccc(C#N)c(Cl)c7)C6(C)C)cn5)C4)C3)cc1)=NC1(CC1)c1nnc(C)n1-2", "GI50", "> 3000 nM"],
  ["Cc1sc2c(c1C)C(c1ccc(N3CC(C4CCN(c5ncc(C(=O)N[C@H]6C(C)(C)[C@H](Oc7ccc(C#N)c(Cl)c7)C6(C)C)cn5)C4)C3)cc1)=NC1(CC1)c1nnc(C)n1-2 (stereo partly drawn)", "GI50", "500 to 1500 nM"],
  ["Cc1sc2c(c1C)C(c1ccc(C3CC(C4CCN(c5cnc(C(=O)N[C@H]6C(C)(C)[C@H](Oc7ccc(C#N)c(Cl)c7)C6(C)C)cn5)CC4)C3)cc1)=NC(C)c1nnc(C)n1-2 (stereo partly drawn) [Compound I-472]", "GI50", "< 500 nM"],
  ["Cc1sc2c(c1C)C(c1ccc(N3CCC[C@H](C(=O)NCc4ncc(C(=O)N[C@H]5C(C)(C)[C@H](Oc6ccc(C#N)c(Cl)c6)C5(C)C)cn4)C3)cc1)=N[C@@H](Cc1ncco1)c1nnc(C)n1-2 [Compound I-332]", "GI50", "> 3000 nM"],
  ["Cc1sc2c(c1C)C(c1ccc(C#C[C@H]3C[C@@]4(CCCN(c5ncc(C(=O)N[C@H]6C(C)(C)[C@H](Oc7ccc(C#N)c(Cl)c7)C6(C)C)cn5)C4)C3)cc1)=N[C@@H](C)c1nnc(C)n1-2", "GI50", "> 3000 nM"],
  ["Cc1sc2c(c1C)C(c1ccc(C3CC3C3CC4(CCN(c5cnc(C(=O)N[C@H]6C(C)(C)[C@H](Oc7ccc(C#N)c(Cl)c7)C6(C)C)cn5)CC4)C3)cc1)=NC(Cc1ncco1)c1nnc(C)n1-2 (stereo partly drawn) [Compound I-541]", "GI50", "< 500 nM"],
  ["Cc1sc2c(c1C)C(c1ccc(OC3CC4(CCN(c5ncc(C(=O)N[C@H]6C(C)(C)[C@H](Oc7ccc(C#N)c(Cl)c7)C6(C)C)cn5)CC4)C3)cc1)=NC(C(F)(F)F)c1nnc(C)n1-2 (stereo partly drawn)", "GI50", "> 3000 nM"],
  ["Cc1sc2c(c1C)C(c1ccc(N3CC(C4CCCC(Cc5ncc(C(=O)N[C@H]6C(C)(C)[C@H](Oc7ccc(C#N)c(Cl)c7)C6(C)C)cn5)C4)C3)cc1)=N[C@@H](Cc1ncco1)c1nnc(C)n1-2 (stereo partly drawn) [Compound I-582]", "GI50", "< 500 nM"],
  ["Cc1sc2c(c1C)C(c1ccc(CC3CC(CC4CCN(c5ncc(C(=O)N[C@H]6C(C)(C)[C@H](Oc7ccc(C#N)c(Cl)c7)C6(C)C)cn5)CC4)C3)cc1)=N[C@@H](C)c1nnc(C)n1-2 (stereo partly drawn)", "GI50", "< 500 nM"],
  ["Cc1sc2c(c1C)C(c1ccc([C@H]3C[C@@H]3CC3CCCN(c4ncc(C(=O)N[C@H]5C(C)(C)[C@H](Oc6ccc(C#N)c(Cl)c6)C5(C)C)cn4)C3)cc1)=NC(Cc1ncco1)c1nnc(C)n1-2 (stereo partly drawn) [Compound I-495]", "GI50", "< 500 nM"],
  ["Cc1sc2c(c1C)C(c1ccc(C3CC3C3CC4(CCN(c5cnc(C(=O)N[C@H]6C(C)(C)[C@H](Oc7ccc(C#N)c(Cl)c7)C6(C)C)cn5)CC4)C3)cc1)=NC(Cc1ncco1)c1nnc(C)n1-2 (stereo partly drawn) [Compound I-538]", "GI50", "> 3000 nM"],
  ["Cc1sc2c(c1C)C(c1ccc(C3CC3C3CC4(CCN(c5cnc(C(=O)N[C@H]6C(C)(C)[C@H](Oc7ccc(C#N)c(Cl)c7)C6(C)C)cn5)CC4)C3)cc1)=N[C@@H](C)c1nnc(C)n1-2 (stereo partly drawn)", "GI50", "> 3000 nM"],
  ["Cc1sc2c(c1C)C(c1ccc(N3CCC[C@H](C(=O)NCc4ncc(C(=O)N[C@H]5C(C)(C)[C@H](Oc6ccc(C#N)c(Cl)c6)C5(C)C)cn4)C3)cc1)=N[C@@H](Cc1ncco1)c1nnc(C)n1-2 [Compound I-331]", "GI50", "500 to 1500 nM"],
  ["Cc1sc2c(c1C)C(c1ccc([C@H]3C[C@H](C[C@@H]4CCCN(c5ncc(C(=O)N[C@H]6C(C)(C)[C@H](Oc7ccc(C#N)c(Cl)c7)C6(C)C)cn5)C4)C3)cc1)=N[C@@H](Cc1ncco1)c1nnc(C)n1-2", "GI50", "< 500 nM"]
]}
